test system: rat DGAT2 mRNA; assay: Dose-dependent inhibition of DGAT2 in A10 cells, 0.62-150 nM (Example 22, Table 83); type: cell-based; conditions: 50 nM
Strand notation (5' to 3'): a small letter for the sugar, then the base; units joined by * are phosphorothioate-linked, units joined directly phosphodiester-linked; [ ] holds rarer units or linkages, { } end groups; capitals alone tell only the bases. e = 2'-O-(2-methoxyethyl) (MOE); [5mC] = 5-methylcytosine; d = 2'-deoxy (DNA)
Consider the following substances; for each one, report its percent inhibition of rat DGAT2.
// response body must contain only the number

Exercise: I have this substance here, 372624 (antisense eT*eG*dG*dT*d[5mC]*dT*dT*dG*dT*dG*dA*dT*eT*eG) [compound 372624] , and I need its recorded percent inhibition of rat DGAT2.
Key: 16

Exercise: Next: 372500 (antisense eG*eT*eG*dT*dG*dT*d[5mC]*dT*dT*d[5mC]*dA*d[5mC]*d[5mC]*eA*eG*e[5mC]) [compound 372500]
Key: 64

Exercise: Next: 372618 (antisense eG*eT*dG*dG*dT*dA*d[5mC]*dA*dG*dG*dT*d[5mC]*eG*eA) [compound 372618]
Key: 30

Exercise: Next: 372546 (antisense eT*eT*eG*dG*dT*d[5mC]*dT*dT*dG*dT*dG*dA*dT*eT*eG*eT) [compound 372546]
Key: 48

Exercise: Next: 372563 (antisense eA*eG*d[5mC]*d[5mC]*dA*dG*dG*dT*dG*dA*d[5mC]*dA*eG*eA) [compound 372563]
Key: 4

Exercise: Next: 372530 (antisense eT*e[5mC]*eG*dG*d[5mC]*d[5mC]*d[5mC]*d[5mC]*dA*dG*dG*dA*dG*e[5mC]*e[5mC]*e[5mC]) [compound 372530]
Key: 38

Exercise: Next: 372580 (antisense eG*eG*dT*dT*dG*dT*dG*dT*dG*dT*d[5mC]*dT*eT*e[5mC]) [compound 372580]
Key: 16

----------
test system: PCSK9 mRNA; format: cell-based, human; details: Hep3B cells, 100 nM, relative to untreated control cells; 0 = no reduction observed
Strand notation (5' to 3'): a small letter for the sugar, then the base; units joined by * are phosphorothioate-linked, units joined directly phosphodiester-linked; [ ] holds rarer units or linkages, { } end groups; capitals alone tell only the bases. e = 2'-O-(2-methoxyethyl) (MOE); [5mC] = 5-methylcytosine; d = 2'-deoxy (DNA)
Consider the following substances; for each one, report its % Inhib (PCSK9 mRNA).
// return numeric value only (unit: %, not printed)

Exercise: I have this substance here, 400332 (e[5mC]*eA*dG*dG*dG*dA*dA*d[5mC]*d[5mC]*dA*dG*dG*e[5mC]*e[5mC]; antisense) [compound 400332] , and I need its recorded % Inhib (PCSK9 mRNA).
Key: 0

Exercise: Next: 400315 (eA*eT*dG*dA*dG*dG*dG*dT*dG*d[5mC]*d[5mC]*dG*e[5mC]*eT; antisense) [compound 400315]
Key: 0

Exercise: Next: 400300 (antisense eG*eG*dG*dA*dT*dG*d[5mC]*dT*d[5mC]*dT*dG*dG*eG*e[5mC]) [compound 400300]
Key: 9

Exercise: Next: 400344 (eG*eG*dG*dT*dG*d[5mC]*dT*dG*dG*dG*dG*dG*eG*e[5mC]; antisense) [compound 400344]
Key: 0

Exercise: Next: 400326 (eT*e[5mC]*d[5mC]*d[5mC]*d[5mC]*dA*dA*dA*dG*dT*d[5mC]*d[5mC]*e[5mC]*e[5mC]; antisense) [compound 400326]
Key: 0

Exercise: Next: 400368 (antisense e[5mC]*eG*dG*d[5mC]*dT*d[5mC]*d[5mC]*dG*dG*d[5mC]*dA*dG*e[5mC]*eA) [compound 400368]
Key: 11

Exercise: Next: 400361 (antisense eG*eG*d[5mC]*dA*dG*d[5mC]*dA*dG*dA*dT*dG*dG*e[5mC]*eA) [compound 400361]
Key: 2

Exercise: Next: 400327 (eG*eT*d[5mC]*d[5mC]*d[5mC]*d[5mC]*dA*dA*dA*dG*dT*d[5mC]*e[5mC]*e[5mC]; antisense) [compound 400327]
Key: 36

Exercise: Next: 400325 (e[5mC]*e[5mC]*d[5mC]*d[5mC]*dA*dA*dA*dG*dT*d[5mC]*d[5mC]*d[5mC]*e[5mC]*eA; antisense) [compound 400325]
Key: 4

Exercise: Next: 400346 (eG*eA*dG*d[5mC]*dA*dG*d[5mC]*dT*d[5mC]*dA*dG*d[5mC]*eA*eG; antisense) [compound 400346]
Key: 5

Exercise: Next: 400303 (antisense eA*eG*dA*dT*dA*d[5mC]*dA*d[5mC]*d[5mC]*dT*d[5mC]*d[5mC]*eA*e[5mC]) [compound 400303]
Key: 0

Exercise: Next: 400317 (e[5mC]*eT*dA*dT*dG*dA*dG*dG*dG*dT*dG*d[5mC]*e[5mC]*eG; antisense) [compound 400317]
Key: 7

Exercise: Next: 400340 (e[5mC]*eT*dG*dG*dT*d[5mC]*d[5mC]*dT*d[5mC]*dA*dG*dG*eG*eA; antisense) [compound 400340]
Key: 0
